- assayTarget: NADPH oxidase 2 (Homo sapiens)
- testName: NOX2-dependent H2O2 signal modulators, primary screen, NOX inhibitor project, cell-based, HEK293-NOX2, PMA-stimulated, Amplex Red fluorescence (AID 1159); further: test concentration not given here
- recordedConditions: 45 min, higher = more signal, called active from +8 up or from −8 down
observedProperty: z-score
Answer using only a numeral; do not append any unit.

Example entries and their recorded answers appear below.
compound	z-score
CCc1cc2c(nc1CC)CCN(CCC(C)=NO[C@@H]1O[C@H](COC(C)=O)[C@@H](OC(C)=O)[C@H](OC(C)=O)[C@H]1OC(C)=O)C2	0.0419
CC(=O)OC[C@H]1O[C@H](C#CCC2CCCCC2)C=C[C@@H]1OC(C)=O	0.217
Cc1ccc2[nH]c3nc(CCCn4ccnc4-c4ccccc4)nnc3c2c1	-0.137
CO[C@H]1COC(=O)[C@H](C)COC(=O)[C@@H](OCc2ccccc2)C=C[C@@H]1C	-0.596
CON=C(C)CCN1CCCCc2nc(C)c(C)cc21	-0.0289
C=CC[C@@H]1C=CC(ON=C(C)C)[C@@H](CO)O1 (stereo partly drawn)	-0.202
O=C1[C@H]2[C@H]3[C@H](O)[C@H](O)CC(=NOC[C@@H](O)COCc4ccco4)[C@@H]3CC[C@H]2C(=O)N1c1cccc(Oc2ccccc2)c1	2.2

Please look at the following compound next.
Requested read-out: z-score. Entry: O=C1[C@H]2[C@H]3[C@H](O)[C@H](O)CC(=NOC[C@@H](O)COCc4ccco4)[C@@H]3CC[C@H]2C(=O)N1Cc1ccccc1
-1.69

---

# composite z-score listing for each entry below
- testName: small-molecule binders of probe aNOTCH3, primary screen, biochemical, small-molecule microarray, 635/667 nm fluorescence (AID 1120);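 further: probe is a biotin-tagged antibody raised against NOTCH3 rather than NOTCH3 protein; score merges spot fluorescence near 667 nm with spot signal to noise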
- recordedConditions: higher = more signal
Answer using only a numeral; do not append any unit.

Example entries and their recorded answers appear below.
compound	composite z-score
COc1ccc(OC[C@@H]2CC3[C@@H](c4ccc(Br)cc4)[C@H](C)CC[C@H]3C(=O)O2)cc1 (stereo partly specified)	-0.023
O=C1C=C[C@@H](O)[C@@H]2[C@@H]3C(=O)N(Cc4ccc5c(c4)OCO5)C(=O)[C@@H]3CC[C@@H]12	0.123
COC(=O)[C@H](C)NC(=O)CCC1CC(OC(=O)NCc2cccc3ccccc23)CC2(CCCC(COC(=O)NCc3ccccc3)O2)O1 (stereo partly specified)	0.062
CCCCOC(OCCCC)C(O)CSc1ccc2ccccc2c1 (stereo unspecified)	0.0669

Please look at the following compound next.
Requested read-out: composite z-score. Entry: COc1ccc(COC(=O)NN=C2C[C@@H](O)[C@@H](O)[C@@H]3[C@@H]4C(=O)N(C[C@@H]5CCCO5)C(=O)[C@@H]4CC[C@H]23)cc1
0.0562

---

- testName: binders from COS7 lysate, DM2A8 probe, primary screen, torsin A project, cell lysate, small-molecule microarray, fluorescence 635/667 (AID 1065)
- recordedConditions: higher = more signal, COS7 lysate expressing mutant human TOR1A
# composite z-score listing for each entry below
Answer using only a numeral; do not append any unit.

Example entries and their recorded answers appear below.
compound	numericValue
O=C(NCCC[N+]1=CC=NC1c1ccccc1)N1CCCc2nc(-c3ccc(Br)cc3)ccc21 (stereo unspecified)	-0.14
C=CC[C@@H]1C=C[C@H](ON=C2C[C@@H](O)[C@@H](O)[C@@H]3[C@@H]4C(=O)N(CC)C(=O)[C@@H]4CC[C@@H]23)[C@@H](CO)O1	1.86
CCN1C(=O)[C@H]2[C@H]3[C@H](O)[C@H](O)CC(=NOCC=C(C)CCC=C(C)C)[C@@H]3CC[C@H]2C1=O	1.36
CCC1=NOC(CCC2CC(OC(=O)NCc3cccc4c3OCO4)CC3(CCCC(COC(=O)NCCc4ccc(Cl)cc4)O3)O2)C1 (stereo unspecified)	0.0253
CC1(C)O[C@H]2O[C@H]([C@H](O)CON=C3[C@H]4CCn5c(=O)n(-c6ccccc6)c(=O)n5[C@H]4[C@H](O)[C@@H]4O[C@H]34)[C@H](O)[C@H]2O1	0.0391

Requested read-out: composite z-score. Entry: O=C1[C@H]2[C@H]3[C@H](O)[C@H](O)CC(=NO[C@@H]4O[C@H](CO)[C@@H](O)[C@H](O)[C@H]4O)[C@H]3CC[C@H]2C(=O)N1C[C@@H]1CCCO1
1.07

Requested read-out: composite z-score. Entry: CCOC(=O)NN=C1C[C@@H](O)[C@@H](O)[C@@H]2[C@@H]3C(=O)N(CC)C(=O)[C@@H]3CC[C@H]12
0.36

Requested read-out: composite z-score. Entry: COC(=O)CC=C[C@@H](C)[C@@H](C=NOC[C@@H](O)COCc1ccco1)NS(=O)(=O)c1ccc(C)cc1
0.9

Requested read-out: composite z-score. Entry: CO[C@H]1COC(=O)[C@H](CCSC)NC(=O)CC=C[C@@H](C)[C@H](OC)COC(=O)[C@@H](OCc2ccccc2)C=C[C@@H]1C
0.633

Requested read-out: composite z-score. Entry: C#CCCCON=C1C[C@@H](O)[C@@H](O)[C@@H]2[C@@H]3C(=O)N(C4CCCCC4)C(=O)[C@@H]3CC[C@@H]12
0.0616

Requested read-out: composite z-score. Entry: O=C1[C@H]2[C@H]3[C@H](O)[C@H](O)CC(=NO[C@@H]4O[C@H](CO)[C@@H](O)[C@H](O)[C@H]4O)[C@@H]3CC[C@H]2C(=O)N1C1CCCCC1
-0.0085

Requested read-out: composite z-score. Entry: O=C1C[C@H](c2ccccc2)[C@H](c2ccc(Br)cc2)O1
0.246

Requested read-out: composite z-score. Entry: CCc1cc2c(nc1CC)CCN(CCC(C)=NO[C@@H]1O[C@H](COC(C)=O)[C@@H](OC(C)=O)[C@H](OC(C)=O)[C@H]1OC(C)=O)C2
0.905

Requested read-out: composite z-score. Entry: C[C@H]1CC[C@H]2C(=O)N[C@H](Cc3ccccc3)C(=O)N2[C@@H]1c1ccccc1
0.524

Requested read-out: composite z-score. Entry: CC(CCN1CCCCc2nc(C)c(C)cc21)=NO[C@H](C)c1cn([C@@H]2COC[C@H]2O)nn1
2.25

Requested read-out: composite z-score. Entry: CCCC[C@H]1CN2[C@@H](CC[C@@H](C)[C@@H]2c2ccc(Br)cc2)C(=O)O1
0.389

Requested read-out: composite z-score. Entry: CC(CCN1CCCc2nc(C)c(C)cc21)=NO[C@@H](C)c1cn([C@H](CO)Cc2ccccc2)nn1
0.417
